The measurements presented in this section are drawn from patent EP3860599B1.

- test.details: Plasma concentrations after oral dosing (solution in apple juice) of human volunteers, Example 1A
- Type: in vivo
- condition.info: human, plasma, po, 15 mg, subject 4 (59 kg); 15 mg oral; 1 h
property: concentration at 1 h (ng/mL)
Reply numerically in ng/mL, unit not repeated.

Look up concentration at 1 h for this compound: COc1cc2c(cc1OC)[C@H]1C[C@@H](O)[C@H](CC(C)C)CN1CC2 [(+)-α-dihydrotetrabenazine]
53.8

----------
- test.details: Plasma concentrations after oral dosing (solution in apple juice) of human volunteers, Example 1A
- Assay type: in vivo
- condition.info: human, plasma, po, 15 mg, subject 1 (112 kg); 15 mg oral; 1.5 h
property: concentration at 1.5 h (ng/mL)
Value expressed in ng/mL; do not type the unit.

concentration at 1.5 h for COc1cc2c(cc1OC)[C@H]1C[C@@H](O)[C@H](CC(C)C)CN1CC2 [(+)-α-dihydrotetrabenazine] ?
10.7
